Biological target: T1, recombinant monkey CD25-His protein (monkey (cynomolgus), UniProt H6WS54 1-213)
T1 construct: range 1-213; also called cynomolgus monkey (Cyno) CD25
T1 sequence: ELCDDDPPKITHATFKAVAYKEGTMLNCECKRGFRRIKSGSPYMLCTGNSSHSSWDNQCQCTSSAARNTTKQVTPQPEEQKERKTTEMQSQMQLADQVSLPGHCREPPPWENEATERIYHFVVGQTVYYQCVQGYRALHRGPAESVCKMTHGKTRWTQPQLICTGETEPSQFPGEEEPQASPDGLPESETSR
Experiment: ELISA, plate coated with monkey CD25-His
Quantity kind: EC50 (nM)
Report the figure in nM without appending any unit label.

These solved cases illustrate the format of a correct answer.
{"Binder": "cAb042 (antibody, human IgG1, V domains shown, also called mAb042/cAb042) VH: QVQLQQSGPELVKSGASVKLSCKASGYTFTTYDINWMKQRPGQGLEWIGWIYPRDGSTKYNAKFKGKATLTEDTSSNTAFMELHSLTSEDSAVYFCARERIYDGSFDYWGQGTTLTVSS VL: DIVMTQSPSSLSVSAGEKVSMRCKSSQRLFNSRDQKNYLAWYQQKPGQPPKLLIYGASTRESGVPDRFTGSGSGTDFTLTISSVQAEDLAVYYCQNDHIYPLTFGAGTKLELK", "EC50 [nM]": 0.349}
{"Binder": "cAb037 (antibody, human IgG1, V domains shown, also called mAb037/cAb037) VH: QVRLQQSGPELVKPGASVQMSCKASGYTFTDYYINWVKQRPGQGLEWIAWIFPGNGNTYFNENFKDKATLSVDKFSSTAFMLLSSLTSEDSAVYFCARATYDHGGYWYFDVWGTGTTVTVSS VL: QIVLSQSPAILSASPGEKVTMTCRASSSVSHIHWYQQKPGSSPKPWIYATSNLASGVPGRFSGSGSGTSYSLTVSRVEAEDAATYYCQHWNSFTFGGGTELELK", "EC50 [nM]": 0.147}
{"Binder": "cAb001 (antibody, V domains shown, also called mAb001/cAb001) VH: QVTLKESGPGILQPSQTLSLTCSFSGFSLNTFGMGVGWIRQPSGKGLEWLAHIWWDDDKYYNPALKSRLTISKDTSKNQVFLKIANVDTADTVTYYCARITTEVGNYDVWGMGTTVTVSS VL: EIVLTQSPALMAASPGEKVTITCSVSSGITSNNLHWYQQKSETSPKPWIYGTSNLASGVPIRFSGSGSGTSYSLTISSMEAEDAATYYCQQWSSYPFTFGSGTKLEIK", "EC50 [nM]": 0.399}
{"Binder": "cAb046 (antibody, human IgG1, V domains shown, also called mAb046/cAb046) VH: EVQLVESGGGLVKPGGSLKLSCAASGFTFSSYAMSWVRQTPEKRLEWVATISEGGSYTYYPDNVKGRFTISRDNARNNLYLQMSHLKSEDTAMYLCVRDNPWFAYWGQGTLVTVST VL: DVLMTQTPLSLPVSLGDRASISCRSSQNIVHSNGNTYLEWFLQKPGQSPKLLIYKVSKRFSGVPDRFSGSGSGTDFTLKISRVEAEDLGVYYCFQGSHVPYTFGGGTKLEIK", "EC50 [nM]": 5.57}
{"Binder": "cAb002 (antibody, human IgG1, V domains shown, also called mAb002/cAb002) VH: QVTLKESGPGILQPSQTLSLTCSFSGFSLSTFGLGVGWIRQPSGKGLEWLAQIWWDDDEYYNPALKSRLTISKDTSRNQVFLKIANVDTGDTATYFCARMGDTYWYFDVWGTGTTVAVSS VL: EIVVTQSPALMAVSPGEKVTITCSLSSGITSSNLHWYQQKSETSPKPWIYGTSNLASGVPVRFSGSGSKTSYSLTISSMEAEDAATYYCQQWSSYPFTFGSGTKLEIK", "EC50 [nM]": 0.524}

Request: // Input: cAb006 (antibody, human IgG1, V domains shown, also called mAb006/cAb006) VH: QIQLQQSGAELMKPGASVKLSCKATGYTFTGHWIEWVKQRPGHGLEWVGEILPGSNKINYNEKFKGKATFTAETSSNTVYMQLSSLTTEDSAIYYCAGGGGPHWPFAFWGQGSLVTVSA VL: DIVLTQSPASLTVSLGQRATISCRASESVNVHGAHLMHWYQQKPGQPPKLLIYAASILESGVPARFSGSGSETDFTLNIHPVEEEDAATYFCQQTIEDPRTFGGGTKLEIK . Output its EC50 only.
Result: 0.234
